Data provenance: patent US20240174648A1

measured_on: JAK1 (Homo sapiens)
Sequence (P23458 whole entry): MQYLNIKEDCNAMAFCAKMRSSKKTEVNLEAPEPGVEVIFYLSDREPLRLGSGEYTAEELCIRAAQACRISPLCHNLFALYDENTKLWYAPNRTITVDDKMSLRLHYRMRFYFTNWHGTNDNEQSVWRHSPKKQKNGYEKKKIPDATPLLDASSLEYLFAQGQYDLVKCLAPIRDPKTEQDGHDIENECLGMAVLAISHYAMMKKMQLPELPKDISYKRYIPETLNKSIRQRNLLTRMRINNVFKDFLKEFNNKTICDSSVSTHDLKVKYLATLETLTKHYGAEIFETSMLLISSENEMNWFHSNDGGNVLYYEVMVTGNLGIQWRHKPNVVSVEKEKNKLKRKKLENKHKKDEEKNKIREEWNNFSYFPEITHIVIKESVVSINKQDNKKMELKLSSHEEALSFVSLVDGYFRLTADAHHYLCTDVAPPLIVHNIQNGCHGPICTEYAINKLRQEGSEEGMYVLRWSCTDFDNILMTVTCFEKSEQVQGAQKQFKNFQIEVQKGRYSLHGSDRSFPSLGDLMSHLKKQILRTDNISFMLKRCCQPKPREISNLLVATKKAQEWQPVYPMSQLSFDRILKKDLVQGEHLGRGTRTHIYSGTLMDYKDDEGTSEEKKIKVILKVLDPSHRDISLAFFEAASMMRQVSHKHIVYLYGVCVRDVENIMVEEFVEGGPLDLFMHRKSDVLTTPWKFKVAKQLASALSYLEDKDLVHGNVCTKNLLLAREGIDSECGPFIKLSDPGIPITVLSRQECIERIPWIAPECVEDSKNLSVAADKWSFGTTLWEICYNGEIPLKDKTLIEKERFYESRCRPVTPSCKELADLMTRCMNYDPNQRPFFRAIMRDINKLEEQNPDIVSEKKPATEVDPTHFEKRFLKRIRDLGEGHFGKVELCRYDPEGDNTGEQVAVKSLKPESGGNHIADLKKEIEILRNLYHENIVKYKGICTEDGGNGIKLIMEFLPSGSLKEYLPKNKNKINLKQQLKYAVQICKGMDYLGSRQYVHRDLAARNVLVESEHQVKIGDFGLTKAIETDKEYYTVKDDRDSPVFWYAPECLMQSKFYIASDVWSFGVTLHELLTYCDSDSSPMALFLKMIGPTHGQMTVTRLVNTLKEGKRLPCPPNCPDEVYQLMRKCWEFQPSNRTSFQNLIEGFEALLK
protocol_notes: JAK kinase inhibition assay (EZ Reader, peptide substrate phosphorylation) - JAK1
Assay type: biochemical
test_parameters: JAK1 kinase 20 nM; 8 concentration points, max 10 μM
Form field: IC50 (one value per entry).

Data request, read-out IC50, for "Cn1cc(Nc2nccc(-c3cnc(NC(=O)C4CC4)nc3)n2)cn1"
1 to 10 µM

Data request, read-out IC50, for "Cn1cc(Nc2nccc(-c3ccc(NC(=O)CC#N)c4[nH]ccc34)n2)cn1"
0.1 to 1 µM

Data request, read-out IC50, for "Cn1cc(Nc2nccc(-c3ccc(NC(=O)CC#N)c4[nH]ncc34)n2)cn1"
0.1 to 1 µM

Data request, read-out IC50, for "Cn1cc(Nc2nccc(-c3ccc(NC(=O)C4(C)CC4)cc3)n2)cn1"
0.1 to 1 µM

Data request, read-out IC50, for "Cn1cc(Nc2nccc(-c3ccc(NC(=O)C4(F)CC4)cc3)n2)cn1"
0.1 to 1 µM
